# System: SF-268 CNS
# assay.protocol: NCI-60 one-dose screen, 48 h (100 = growth as untreated, 0 = no growth, -100 = all killed)
# protocol.conditions: 10 µM unless noted
About 83,000 compounds went through this panel and 20% of them were active in at least one assay; those are over-represented in the sample as a whole.
growth vs 80%: less than gives class 1; not less than gives class 0.

O=C(Cn1nnc2ccccc21)Nc1ccc(-c2nc3ccccc3s2)cc1 :: class 0
Cc1ccc(C(=O)c2ccc(CC(=O)N/N=C/c3ccc(O)cc3O)n2C)cc1 :: class 1
COc1ccc(-c2ccc(-c3ccc(C(=N)N)cn3)s2)cc1 :: class 0
Cn1ncc2ccc(-c3nc(-c4ccccc4)[nH]c3-c3n[nH]c(=O)n3C3CC3)cc21 :: class 0
CCN1C(=O)N(CC)C2C1NN=c1s/c(=C\c3ccccc3Br)c(=O)n12 (centres undefined) :: class 1

[Q] Dear reviewer, please state whether COc1ccc(C2CC(c3ccc(Nc4nc(Nc5ccc(F)cc5)nc(Nc5ccc(F)cc5)n4)cc3)=NN2C(C)=O)cc1 (centres undefined) has growth strictly beneath 80%.
[A] class 0

[Q] Do the same for "COc1ccc(C2=C/C(=C\c3ccc(Cl)cc3)C(=O)N2/N=C/c2ccc(Cl)cc2)cc1" please
[A] class 0

###

# System: SR leukemia
# assay.protocol: NCI-60 one-dose screen, 48 h (100 = growth as untreated, 0 = no growth, -100 = all killed)
# protocol.conditions: 10 µM unless noted
About 83,000 compounds went through this panel and 20% of them were active in at least one assay; those are over-represented in the sample as a whole.
Each item that follows carries a reported growth.
State the answer as a number, implicitly in %.

Observe how each entry below is paired with its result.
N=C(N)c1ccc(-c2ccc(-c3ccc(Cl)cc3Cl)s2)cc1F :: -6.47
FC(F)(F)c1[nH]ncc1-c1nc2c(N3CCCCC3)cc3[nH]ncc3c2c2c1CCCC2 :: -4.82
c1ccc2cc(Cn3c[n+](Cc4ccc5ccccc5c4)c4ccccc43)ccc2c1 :: -66.7
CN(CCC#N)c1ccc(/C=C2\NC(=O)NC2=O)cc1 :: 102
COc1cccc(OC)c1Oc1c(-c2nc3ccccc3s2)c(C)nn1-c1ccccc1 :: 6.99

[Q] Can you look up the measured growth of CC1(C)O[C@H]2OC3CCC(=O)CC3(O)[C@H]2O1 (stereo not given in full) for me?
[A] 107

[Q] Do the same for COc1ccc(C2=NN(C(=O)c3cc(OC)c(OC)c(OC)c3)C(c3ccc(N(C)C)cc3)C2)cc1 (stereo not given) please
[A] 15.3

[Q] Do the same for "CC(C)(CO)N(CCO)CCO" please
[A] 99.5

[Q] Do the same for "CCCCCCNc1nc(NCCCCCC)c2[nH]c(NCCCCCC)nc2n1" please
[A] -33.4

[Q] Do the same for "NC(=O)c1c(NC(=O)c2ccc(Cl)cc2)sc2c1CCC(=O)C2" please
[A] 13.3

[Q] Do the same for "CC(C)CCSc1nc(Nc2ccccc2)c(C#N)c(-c2ccccc2)n1" please
[A] 27.2

[Q] Do the same for "O=C(CN1C(=O)/C(=C/c2ccco2)SC1=S)NCCc1c[nH]c2ccc(F)cc12" please
[A] 111

[Q] Do the same for "C[C@@H]1O[C@@H](O[C@@H]2C[C@H](c3ccc4c(c3O)C(=O)C3=C(C4=O)[C@@]4(O)C(=O)C[C@](C)(O)C[C@@]4(O)C=C3)O[C@H](C)[C@H]2O)C[C@H](O)[C@@H]1O" please
[A] 76.7

[Q] Do the same for "O=C(O)CCCc1cnc2c3sccc3nc(SCc3c(Cl)cccc3Cl)n12" please
[A] 23.9

[Q] Do the same for "CCNC(=O)Oc1ccc(/C(=C(/C)Cc2ccc(OC)cc2)c2ccc(OCCN3CCCC3)cc2)cc1" please
[A] 6.92

[Q] Do the same for "CCCCn1sc(=O)n(Cc2ccc(CNC(=O)OCc3ccc4c(Cl)cc(Cl)c(O)c4n3)cc2)c1=O" please
[A] 65.6

[Q] Do the same for "CC(C)(C)C(=O)/C=C/c1ccc([N+](=O)[O-])cc1" please
[A] 8.57

Reference for the values: PubChem BioAssay (NCI)
